reportedMetric: melting point (°C)

Worked cases, answers included:
>  <compound>
FC(F)(F)c1nnc(Nc2ccc3c(c2)COC(N[C@@H]2CCc4ccccc42)=N3)o1

>  <reportedMetric>
melting point

>  <observedResult>
155

$$$$
>  <compound>
Brc1ccc2c(c1)COC(N[C@@H]1CCc3ccccc31)=N2

>  <reportedMetric>
melting point

>  <observedResult>
123

$$$$

I. Fc1ccc2c(c1)CCC2NC1=Nc2ccc(Nc3nnc(C(F)(F)F)o3)cc2CO1 (racemic)
II. COc1cccc2c1C(NC1=Nc3ccc(Nc4nnc(C(F)(F)F)o4)cc3CO1)CO2 (racemic)
Ask | Form field 'greater melting point' accepts I or II ; which applies? Pick one and reply with its label.
Reply | II
(II: 212 °C, I: 142 °C)

====

# assayedTarget: recombinant human 5-HT5A receptor (Homo sapiens)
# assay: [3H]LSD radioligand binding assay
# reportedConditions: [3H]LSD (approximately 1 nM); membranes from HEK-EBNA cells transiently expressing 5-HT5A; Ki by Cheng-Prussoff equation; read-out: Ki
pKi: −log10 of the molar value.
reportedMetric: pKi

Example entries and their recorded answers appear below.
>  <compound>
COc1cccc2c1C(NC1=Nc3ccc(NC(=O)NC4CCN(C(C)C)CC4)cc3CO1)CO2 (racemic)

>  <assayedTarget>
recombinant human 5-HT5A receptor (Homo sapiens)

>  <reportedMetric>
pKi

>  <observedResult>
8.36

$$$$
>  <compound>
COc1cccc2c1C(NC1=Nc3ccc(Nc4nnc(C5CC5)o4)cc3CO1)CC2 (racemic)

>  <assayedTarget>
recombinant human 5-HT5A receptor (Homo sapiens)

>  <reportedMetric>
pKi

>  <observedResult>
8.78

$$$$
>  <compound>
O=C(CN1CCS(=O)(=O)CC1)Nc1ccc2c(c1)COC(N[C@@H]1CCc3ccccc31)=N2

>  <assayedTarget>
recombinant human 5-HT5A receptor (Homo sapiens)

>  <reportedMetric>
pKi

>  <observedResult>
7.80

$$$$
>  <compound>
CC1(C)Cc2cccc(NC3=Nc4ccc(NCc5ncc[nH]5)cc4CO3)c2O1

>  <assayedTarget>
recombinant human 5-HT5A receptor (Homo sapiens)

>  <reportedMetric>
pKi

>  <observedResult>
7.75

$$$$

P. COc1ccccc1CNC1=Nc2ccc(NC(=O)CN3CCN(CCO)CC3)cc2CO1
Q. O=S(=O)(Nc1ccc2c(c1)COC(N[C@@H]1CCc3ccccc31)=N2)C1CC1
R. C(=C\c1ccc2c(c1)COC(N[C@@H]1CCc3ccccc31)=N2)/c1ccccc1
S. COc1cccc2c1C(NC1=Nc3ccc(NS(=O)(=O)N4CCCCC4)cc3CO1)CC2 (racemic)
Ask | Could you please order the items by pKi, going from the lowest number to the highest? Please, when replying, give the labels in the order that was requested.
Reply | R, P, S, Q

====

# assayedTarget: recombinant human 5-HT5A receptor (Homo sapiens, UniProt P47898)
# Sequence (P47898 whole entry): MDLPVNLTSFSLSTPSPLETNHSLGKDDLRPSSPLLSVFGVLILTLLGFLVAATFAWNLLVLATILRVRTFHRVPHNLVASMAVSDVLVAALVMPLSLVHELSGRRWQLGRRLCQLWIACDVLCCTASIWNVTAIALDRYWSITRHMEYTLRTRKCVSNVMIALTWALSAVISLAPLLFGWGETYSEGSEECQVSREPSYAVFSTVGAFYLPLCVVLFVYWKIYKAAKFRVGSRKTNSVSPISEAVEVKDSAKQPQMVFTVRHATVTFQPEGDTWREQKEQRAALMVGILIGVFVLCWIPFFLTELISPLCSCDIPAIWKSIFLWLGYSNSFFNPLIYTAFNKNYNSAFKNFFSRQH
# assay: [3H]LSD radioligand binding assay
# reportedConditions: [3H]LSD (approximately 1 nM); membranes from HEK-EBNA cells transiently expressing 5-HT5A; Ki by Cheng-Prussoff equation; read-out: Ki
reportedMetric: Ki (nM)

A. c1ccc(CNc2ccc3c(c2)COC(NC2CCCCCC2)=N3)cc1 [Example 94]
B. COc1cccc2c1C(NC1=Nc3ccc(Nc4nnc(C(F)(F)F)o4)cc3CO1)CC2 (racemic) [Example 144]
C. C=Cc1ccc2c(c1)COC(N[C@@H]1CCc3ccccc31)=N2 [Example 134]
D. COc1ccccc1CNC1=Nc2ccc([N+](=O)[O-])cc2CO1 [Example 1]
E. COc1cccc2c1C(NC1=Nc3ccc(N)cc3CO1)CC2 (racemic) [Example 10]
Ask | Re-order the entries listed above so their Ki values fall from first to last. Rank the items, then write their labels in that order.
Reply | D, A, C, B, E

====

# assayedTarget: recombinant human 5-HT5A receptor (Homo sapiens)
# assay: [3H]LSD radioligand binding assay
# reportedConditions: [3H]LSD (approximately 1 nM); membranes from HEK-EBNA cells transiently expressing 5-HT5A; Ki by Cheng-Prussoff equation; read-out: Ki
reportedMetric: Ki (nM)

>  <compound>
CC(C)N1C2CCC1CC(NCC(=O)Nc1ccc3c(c1)COC(N[C@@H]1CCCc4ccccc41)=N3)C2 (stereo partly shown)

>  <reportedMetric>
Ki

>  <unitAbbrev>
nM

>  <observedResult>
61.3

$$$$

A. COc1cccc2c1C(NC1=Nc3ccc(NC(=O)CN4CCN(C(C)C)CC4)cc3CO1)CO2 (racemic)
B. c1ccc2c(c1)CC[C@H]2NC1=Nc2ccc(NCc3nccs3)cc2CO1
C. COCC(=O)Nc1ccc2c(c1)COC(NC1CCc3cc(F)ccc31)=N2 (racemic)
Ask | Descending sort on Ki required. Answer with the labels in sequence, matching the requested order.
Reply | A, C, B

====

# assayedTarget: recombinant human 5-HT5A receptor (Homo sapiens)
# assay: [3H]LSD radioligand binding assay
# reportedConditions: [3H]LSD (approximately 1 nM); membranes from HEK-EBNA cells transiently expressing 5-HT5A; Ki by Cheng-Prussoff equation; read-out: Ki
reportedMetric: Ki (nM)

Example results:
>  <compound>
FC(F)(F)c1cccc(Nc2ccc3c(c2)COC(N[C@@H]2CCc4ccccc42)=N3)n1

>  <Ki [nM]>
6.16

$$$$
>  <compound>
COc1cccc2c1C(NC1=Nc3ccc(NC(=O)CN4CCOCC4)cc3CO1)CO2 (racemic)

>  <Ki [nM]>
40.6

$$$$
>  <compound>
COc1cccc2c1C(NC1=Nc3ccc(Nc4nccc(C(F)(F)F)n4)cc3CO1)CC2 (racemic)

>  <Ki [nM]>
7.16

$$$$
>  <compound>
CS(=O)(=O)Nc1ccc2c(c1)COC(N[C@@H]1CCc3ccccc31)=N2

>  <Ki [nM]>
4.44

$$$$
>  <compound>
O=C(CN1CCOCC1)Nc1ccc2c(c1)COC(N[C@@H]1CCc3ccccc31)=N2

>  <Ki [nM]>
8.74

$$$$

a. COc1cccc2c1C(NC1=Nc3ccc(Nc4cccc(C(F)(F)F)n4)cc3CO1)CO2 (racemic)
b. COCCNCC(=O)Nc1ccc2c(c1)COC(NC1COc3cc(F)ccc31)=N2 (racemic)
Ask | Hey, which is lower on measured Ki, a or b ? // caller expects the label of the chosen entry
Reply | a

A. COc1ccccc1CNC1=Nc2ccc(NC(=O)CN3CCN(C(C)C)CC3)cc2CO1
B. Nc1ccc2c(c1)COC(Nc1cccc(C3CC3)c1)=N2
Ask | Of A versus B , which is the one with smaller reported Ki? Mark your answer with the label of the selected entry.
Reply | A

====

# assayedTarget: recombinant human 5-HT5A receptor (Homo sapiens, UniProt P47898)
# assay: [3H]LSD radioligand binding assay
# reportedConditions: [3H]LSD (approximately 1 nM); membranes from HEK-EBNA cells transiently expressing 5-HT5A; Ki by Cheng-Prussoff equation; read-out: Ki
reportedMetric: Ki (nM)

Here is how some molecules turned out for Ki.
>  <molecule>
CN(C)S(=O)(=O)Nc1ccc2c(c1)COC(NC1CCOc3ccccc31)=N2 (racemic)

>  <observedResult>
52.5

$$$$
>  <molecule>
O=C(Cn1ccnc1)Nc1ccc2c(c1)COC(N[C@@H]1CCc3ccccc31)=N2

>  <observedResult>
7.42

$$$$

1. CN(C)S(=O)(=O)Nc1ccc2c(c1)COC(NC1CCCCCC1)=N2
2. COc1cccc2c1C(NC1=Nc3ccc(Nc4nnc(C)o4)cc3CO1)CO2 (racemic)
3. COc1cccc2c1C(NC1=Nc3ccc(NC(=O)CN4CCN(C)CC4)cc3CO1)CC2 (racemic)
Ask | Would you mind ranking these molecules by ascending Ki? Labels, requested order.
Reply | 3, 2, 1

====

# assayedTarget: recombinant human 5-HT5A receptor (Homo sapiens, UniProt P47898)
# assay: [3H]LSD radioligand binding assay
# reportedConditions: [3H]LSD (approximately 1 nM); membranes from HEK-EBNA cells transiently expressing 5-HT5A; Ki by Cheng-Prussoff equation; read-out: Ki
pKi: −log10 of the molar value.
reportedMetric: pKi

These solved cases illustrate the format of a correct answer.
>  <molecule>
COc1cccc2c1C(NC1=Nc3ccc([N+](=O)[O-])cc3CO1)CO2 (racemic)

>  <pKi>
6.43

$$$$
>  <molecule>
COCCNCC(=O)Nc1ccc2c(c1)COC(N[C@@H]1CCCc3ccccc31)=N2

>  <pKi>
7.48

$$$$
>  <molecule>
COc1cccc2c1C(NC1=Nc3ccc(Nc4nnc(C)o4)cc3CO1)CC2 (centres unmarked)

>  <pKi>
8.62

$$$$

a. COc1cccc2c1C(NC1=Nc3ccc(NC(C)=O)cc3CO1)CO2 (racemic)
b. c1cncc(CNc2ccc3c(c2)COC(N[C@@H]2CCc4ccccc42)=N3)c1
c. CN1CCN(CC(=O)Nc2ccc3c(c2)COC(N[C@@H]2CCCc4ccccc42)=N3)CC1
d. c1cc(NC2=Nc3ccc(NCc4nccs4)cc3CO2)cc(C2CC2)c1
Ask | # sort list by recorded pKi, greatest to least Provide your answer as the labels ordered per the instruction.
Reply | b, c, a, d
(b: 8.77, c: 8.50, a: 7.63, d: 7.42)
